Tested on: NCI/ADR-RES ovarian
Assay: NCI-60 one-dose screen, 48 h (100 = growth as untreated, 0 = no growth, -100 = all killed)
Settings: 10 µM unless noted
About 83,000 compounds went through this panel and 20% of them were active in at least one assay; those are over-represented in the sample as a whole.

COMPOUND | growth [%]
COc1cc(/C=C/C(=O)c2ccc(Oc3ncnc4ccccc34)cc2)cc(OC)c1OC | 70.3
CCOc1ccccc1C(=O)N1CCN(c2cc(Cl)cc(Cl)c2)CC1 | 14.5
CC(C)CNCC(O)COc1ccc(C(C)(C)c2ccc(OCC(O)CNCC(C)C)cc2)cc1 (stereo unspecified) | 86.7
CCNc1cc(S(=O)(=O)O)ccc1C | 102
COc1ccc(Cl)cc1NC(=O)c1cc2c(n1C)-c1nc(NC(=O)C(C)(C)C)sc1CC2 | 93.8
CC(=O)n1cc(/C=C2\N=C(c3ccc(Cl)cc3)N(c3ccc(S(=O)(=O)Nc4nccs4)cc3)C2=O)c2ccccc21 | 106
CNCCCOc1c(Br)cc(CCNC(=O)/C(Cc2cc(Br)c(OC)c(Br)c2)=N/O)cc1Br | 9.44
O=C1CN(CCN2CC(=O)NC(=O)C2)CC(=O)N1 | 99.9
COc1cc(C(=O)NNC(=O)c2ccccc2O)cc(OC)c1OC | 94.5
Oc1ccc(O)c(-[n+]2ccccc2)c1 | 108
O=C(O)c1cccc(S(=O)(=O)c2ccccc2)c1 | 104
